# Test system: BMPR1B
# assay_conditions: concentration: 1 μM, replicates: in singlicate; n = 1;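 further: KINOMEscan kinase panel screen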
reported_property: %Inh

- smiles_representation: "CC(C)(C)c1ccc(C(=O)Nc2cn3cc(-c4ccccc4)ccc3n2)cc1"
  reported_property: "%Inh"
  observed_value: "0%"
- smiles_representation: "Nc1ncnc2c1ncn2-c1ccc(Cl)cc1"
  reported_property: "%Inh"
  observed_value: "0%"
- smiles_representation: "Cn1c(=O)c(F)c(Nc2ccc(I)cc2F)c2c(=O)n(OC[C@H](O)CO)cnc21"
  reported_property: "%Inh"
  observed_value: "0%"
- smiles_representation: "CCn1c(-c2ccoc2)nc2cnccc21"
  reported_property: "%Inh"
  observed_value: "10%"
- smiles_representation: "Nc1n[nH]c2ncc(-c3ccccc3)cc12"
  reported_property: "%Inh"
  observed_value: "0%"
- smiles_representation: "CCS(=O)(=O)c1ccc(OC)c(Nc2ncc(-c3ccc(F)cc3)o2)c1.Cl"
  reported_property: "%Inh"
  observed_value: "0%"
- smiles_representation: "COc1cc(Nc2ccnc3ccc(C(F)(F)F)cc23)cc(OC)c1OC"
  reported_property: "%Inh"
  observed_value: "22%"
- smiles_representation: "Cc1cccc(-c2cc(-c3c[nH]nc3-c3ccccn3)ccn2)c1"
  reported_property: "%Inh"
  observed_value: "2%"
- smiles_representation: "COc1ccc(-c2cc3c(C)nc(N)nc3n([C@H]3CC[C@H](O)CC3)c2=O)cn1"
  reported_property: "%Inh"
  observed_value: "0%"
- smiles_representation: "CCC(=O)c1c(-c2ccccc2)c2cc(Cl)ccc2c(=O)n1Cc1cc(S(C)(=O)=O)n(CC(N)=O)n1"
  reported_property: "%Inh"
  observed_value: "0%"

---

# System: CSNK1A1
# assay_conditions: concentration: 1 μM, replicates: in singlicate; n = 1
Listing: %Inh of selected compounds
reported_property: %Inh (%)

- smiles_representation: "COc1cccc(C2=C(Nc3cccc(C(=O)O)c3)C(=O)NC2=O)c1"
  target_system: "CSNK1A1"
  observed_value: 0
- smiles_representation: "CCC(=O)c1c(-c2ccccc2)c2cc(Cl)ccc2c(=O)n1Cc1cc(C(=O)NC2CC2)n(C)n1"
  target_system: "CSNK1A1"
  observed_value: 11
- smiles_representation: "CCc1ccc(-c2ccc3c(c2)-c2nn(C)cc2S(=O)(=O)N3C)cc1"
  target_system: "CSNK1A1"
  observed_value: 2
- smiles_representation: "CCC(=O)c1c(-c2ccccc2)c2cc(Cl)ccc2c(=O)n1Cc1cc(S(C)(=O)=O)n(CC(F)F)n1"
  target_system: "CSNK1A1"
  observed_value: 0
- smiles_representation: "Nc1ncnc2c1ncn2-c1cccc(F)c1"
  target_system: "CSNK1A1"
  observed_value: 16

---

# System: ADCK4
# assay_conditions: concentration: 1 μM, replicates: in singlicate; n = 1
Flag rule - %Inh less than 20% flags t; the remaining entries get f.

- molecule: "COc1cc(Nc2nccc(N3CCC(NC(=O)C(C)c4ccc(Cl)cc4)C3)n2)cc(OC)c1OC (stereo not drawn)"
  assigned_label: "f"
- molecule: "Cc1c(Cn2c(C)nn3c(=O)cc(N4CCO[C@H](C)C4)nc23)cccc1C(F)(F)F"
  assigned_label: "f"
- molecule: "Cc1cccc(-c2cc(-c3c[nH]nc3-c3ccccn3)ccn2)c1"
  assigned_label: "f"
- molecule: "O=C1NC(=O)C(c2ccccc2)=C1Nc1cccc(O)c1"
  assigned_label: "t"
- molecule: "O=C(Nc1n[nH]c2nc(-c3ccccc3)c(Br)cc12)C1CC1"
  assigned_label: "t"

Hello, the source for this data is paper PMC5540273, in case you need it.
